- System: 556581-035-R-J1-PDC complex spheroid growth;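 also: spheroids exposed to agents for 7 days before viability read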
- experiment description: Anticancer human tumor 556581-035-R-J1-PDC patient-derived ovarian carcinoma cell line growth inhibition [Asc]
- recorded conditions: second compound 0.3 µM; first compound 1 µM; active compounds read low
quantity: viability, T/C

Worked examples, 3 compounds total:
compound	viability, T/C
O=C(c1cc(Cc2n[nH]c(=O)c3ccccc23)ccc1F)N1CCN(C(=O)C2CC2)CC1 + CCN1C(C(=O)NC23CCC(C(=O)O)(CC2)CC3)C(c2cccc(Cl)c2F)C2(C(=O)Nc3cc(Cl)ccc32)C12CCCCC2	97.1%
COc1c(OCCCN2CCOCC2)ccc2c3n(c(=NC(=O)c4cnc(N)nc4)nc12)CCN3 + CCN1C(C(=O)NC23CCC(C(=O)O)(CC2)CC3)C(c2cccc(Cl)c2F)C2(C(=O)Nc3cc(Cl)ccc32)C12CCCCC2	15.4%
C#Cc1c(F)ccc2cc(O)cc(-c3ncc4c(N5CC6CCC(C5)N6)nc(OCC56CCCN5CC(F)C6)nc4c3F)c12 (stereo unspecified) + CCN1C(C(=O)NC23CCC(C(=O)O)(CC2)CC3)C(c2cccc(Cl)c2F)C2(C(=O)Nc3cc(Cl)ccc32)C12CCCCC2	86.1%

Measured viability, T/C of CCN1CCN(Cc2ccc(Nc3ncc(F)c(-c4cc(F)c5nc(C)n(C(C)C)c5c4)n3)nc2)CC1 + CCN1C(C(=O)NC23CCC(C(=O)O)(CC2)CC3)C(c2cccc(Cl)c2F)C2(C(=O)Nc3cc(Cl)ccc32)C12CCCCC2 : 88.4%

So, O=C(c1ccc(F)c(F)c1Nc1ccc(I)cc1F)N1CC(O)([C@@H]2CCCCN2)C1 + CCN1C(C(=O)NC23CCC(C(=O)O)(CC2)CC3)C(c2cccc(Cl)c2F)C2(C(=O)Nc3cc(Cl)ccc32)C12CCCCC2 ? Its viability, T/C was 9.99%

Quick note, viability, T/C for C=C(F)C(=O)N1CCN(c2nc(OCC3CCCN3C)nc3c2CCN(c2cccc4cccc(Cl)c24)C3)CC1CC#N (stereo unspecified) + CCN1C(C(=O)NC23CCC(C(=O)O)(CC2)CC3)C(c2cccc(Cl)c2F)C2(C(=O)Nc3cc(Cl)ccc32)C12CCCCC2 landed at 81.6%
